Overview of recorded melting point for various molecules
Write down the numeric answer in °C and omit the unit.

# count of solved cases: 3
CCOC(=O)c1cnc2cc(F)c(F)cc2c1 = 135
Cc1cccc(-c2sc(N)nc2-c2ccnc(-c3ccc(N4CCOCC4)cc3)c2)n1 = 246
OC1CSC(Oc2cccc(-c3cccnc3Cl)c2)C(O)C1O (stereo not given) = 130

Lab note: next molecule to report on.
Exercise: Using the record for "Cc1cc(-c2ccc(C(F)(F)F)cc2)cc(-c2cccc(-c3ccnc(N)c3)n2)n1" , report its melting point.
Solution: 160

====

PROPERTY_LABEL: melting point

COC(=O)CCC/C=C(\c1cc(C)c(OC)c(C(=O)OC)c1)c1cc(C)c2oc(=O)n(C)c2c1 = 120 °C

Exercise: Using the record for "O=S(=O)(Nc1nc2ncc(Cl)cn2n1)c1ccccc1Cl" , report its melting point.
Solution: 256 to 260 °C

Exercise: Using the record for CC(=O)C(C)N(C(=O)CCl)c1c(C)cccc1C (stereo not given) , report its melting point.
Solution: 78 to 82 °C

Exercise: Using the record for "Clc1cc2nc(-c3ccncc3)[nH]c2cc1Cl" , report its melting point.
Solution: 297 °C

====

PROPERTY_LABEL: melting point

# count of solved cases: 5
Cc1onc(OC2CN3CCC2CC3)c1Cl (stereo unspecified) = 37 to 38 °C
COC(=O)c1ccc(N2CCCC2=O)c([N+](=O)[O-])c1 = 159 to 161 °C
CCCC(=O)C(=CNc1ccccc1OC)C(=O)OCC = 74 to 76 °C
Cc1cc(CCCCCOc2ccc(-c3nnco3)cc2)on1 = 84 to 86 °C
O=C(CCCl)N1c2ccccc2CCc2ccccc21 = 107 to 108 °C

Lab note: next compound to report on.
Exercise: Using the record for "O=C1c2ccc([N+](=O)[O-])cc2C(=O)N1CCSc1ccccc1" , report its melting point.
Solution: 120 to 121 °C

====

PROPERTY_LABEL: melting point

CC(C)CCC(O)C(CC1CCCCC1)NC(=O)C(Cc1c[nH]cn1)N(C)C(=O)C(Cc1ccccc1)NC(=O)N(C)CCN(C)C(=O)N1CCOCC1 (stereo not given) = 89 to 92 °C
COCSc1nccn1-c1cccc(C(=O)CC(=O)Nc2cc(-c3ccccc3F)ccc2NC(=O)OC(C)(C)C)c1 = 83 to 86 °C
Cc1ccc(C(=O)Nc2c(NC(=O)CN(C)CC3OCCO3)ccc3c2C(=O)c2ccccc2C3=O)cc1 = 156 to 157 °C
CC(C)=CC(=O)c1sccc1O = 32 to 33 °C
COCCN(C)c1nnc(-c2ccc(-c3ccccc3)nc2)n1-c1cccc2nonc12 = 133 to 134 °C

Exercise: Using the record for "Nc1ccc(Sc2ccccc2)cc1F" , report its melting point.
Solution: 48 to 49 °C

Exercise: Using the record for "FC(F)(F)Sc1ccc(-c2ccc(Cl)cc2)[nH]1" , report its melting point.
Solution: 34 to 39 °C

Exercise: Using the record for "CC(=O)Nc1ccc(C(=O)O)c(OC(C)=O)c1" , report its melting point.
Solution: 191 to 193 °C

Exercise: Using the record for "O=C/C(=C/c1ccccc1)c1ccc(Cl)cc1" , report its melting point.
Solution: 70 to 75 °C

Exercise: Using the record for "CCCCCCCCCC(=O)Nc1ccc(S(=O)(=O)Nc2nnc(C(=O)OCC)s2)cc1" , report its melting point.
Solution: 101 to 102 °C

====

Overview of recorded melting point for various compounds

Exercise: Using the record for COc1ccc(-c2cc(Cl)cc3c2N(C)C(CN)CO3)c(C)c1 (stereo not drawn) , report its melting point.
Solution: 106 °C

Exercise: Using the record for N#CC(Br)c1ccccn1 (stereo not drawn) , report its melting point.
Solution: 62 to 64 °C

====

Overview of recorded melting point for various compounds

# count of solved cases: 5
CN1CCC(c2c[nH]c3ccc(NC(=O)c4cccc(F)c4)nc23)CC1 = 129 to 130 °C
O=C1Nc2cccc(Br)c2C(=O)N2CC[C@@H]12 = 182 to 183 °C
COc1ccc2nc3c(cc2c1)c(N)nn3CC(=O)N(C)C = 251 to 253 °C
CS(=O)(=O)OCc1cc(-c2ccc3c(c2)CCO3)nn(CC2CC2)c1=O = 108 to 111 °C
COc1cccc(Oc2ccc3nc(C(C)=O)c(O)cc3c2)c1 = 102 to 104 °C

Lab note: next compound to report on.
Exercise: Using the record for "O=C(O)COCCc1ccccc1" , report its melting point.
Solution: 46 to 48 °C

====

Overview of recorded melting point for various molecules

# count of solved cases: 5
CCOC(=O)c1ccc(NCCOc2ccc(Br)cc2)cc1 = 128 to 133 °C
CCN(CC)C(=O)c1nc(C)n2c1CN=C(c1ccccc1F)c1cc(Cl)ccc1-2 = 182 to 188 °C
CCOC(=O)c1cc2cc(N3CCN(C(=O)OC(C)(C)C)CC3)ccc2o1 = 116 to 118 °C
OC[C@H]1CCCN1c1nc2c(-c3nc(C4CC4)no3)ncn2c2cccc(Cl)c12 = 220 to 221 °C
CC(C)c1nn(-c2ccc(C(F)(F)F)cn2)cc1CCCOc1cc(CCC(=O)O)n(-c2ccccc2)n1 = 139 to 140 °C

Exercise: Using the record for "Cc1ccc2c(c1)C=Cc1cc(C)ccc1C2c1cn(-c2ccnc(NCC(=O)O)n2)c(=O)[nH]c1=O" , report its melting point.
Solution: 260 to 263 °C

Exercise: Using the record for "CCCCOC(=O)CS(=O)(=O)CC=C1SC=CS1" , report its melting point.
Solution: 99 to 100 °C

====

Overview of recorded melting point for various molecules

Exercise: Using the record for "Cc1nc(-n2cc(-c3ccccn3)nn2)sc1C(=O)NCc1ccccc1" , report its melting point.
Solution: 184 to 187 °C

Exercise: Using the record for "O=C(c1cc(Br)c(O)c(Br)c1)c1c(CCc2ccccc2)oc2ccccc12" , report its melting point.
Solution: 153 to 154 °C

Exercise: Using the record for "C(=C\c1c[nH]c2ccccc12)/c1cc(/C=C/c2ccccc2OCc2ccccn2)[nH]n1" , report its melting point.
Solution: 114 to 125 °C

Exercise: Using the record for "O=C(Cc1ccccc1C(=O)O)Nc1cccc(/C=C/c2nc(C3CCCC3)cs2)c1" , report its melting point.
Solution: 209 to 210 °C

Exercise: Using the record for CC1(C)CC(Br)c2cc(C#N)ccc2O1 (stereo not given) , report its melting point.
Solution: 94 to 95 °C

Exercise: Using the record for "CCCN(CCC)S(=O)(=O)c1cccc(C(=O)Nc2cccc(Br)c2)c1" , report its melting point.
Solution: 105 to 107 °C

Exercise: Using the record for "CCC(=O)NCC1CCN(CCOc2ccccc2)CC1" , report its melting point.
Solution: 85 to 86 °C

Exercise: Using the record for "CC(C)C[C@H](NC(=O)OCc1ccccc1)C(=O)NCCCNC(=O)[C@H](CC(C)C)NC(=O)OCc1ccccc1" , report its melting point.
Solution: 177 to 178 °C

Exercise: Using the record for "N#Cc1cnc2cc(O)c(O)cc2c1Nc1ccc(Cl)cc1F" , report its melting point.
Solution: 270 to 272 °C

Exercise: Using the record for Cc1nc2cccc(CNC(=O)OC(C)(C)C)c2c(=O)n1C1CCC(=O)NC1=O (stereo not given) , report its melting point.
Solution: 206 to 208 °C

====

Overview of recorded melting point for various compounds

# count of solved cases: 10
CCC(CC)N(O)C(=O)Nc1ccc([N+](=O)[O-])cc1 = 169 to 170 °C
CN(N)c1nc(=S)[nH]c2[nH]cnc12 = 245 °C
CCc1cc(=O)oc2cc(O)cc(O)c12 = 241 to 243 °C
CCCN(CCC)C(=O)C1Cc2ccccc2N1c1nc(-c2ccccc2)nc(C)c1C (stereo unspecified) = 167 to 168 °C
COCOc1c2c(cc3ccccc13)N(C(=O)OC(C)(C)C)CC2CCl (stereo unspecified) = 99 to 101 °C
COCc1ccc(Oc2cc(OC)c3[nH]c(C4=NCC(CC(N)=O)S4)cc3c2)cn1 (stereo unspecified) = 135 to 136 °C
O=C(O)CC=C(c1ccccc1)c1ccc(F)cc1 = 98 to 100 °C
Cc1cc(OCc2ccc(-c3ccc(C(F)(F)F)cc3)nn2)ccc1OC(C)(C)C(=O)O = 191 to 192 °C
CCOC(=O)c1c(CO)c(C)n(C)c1C = 184 to 186 °C
C=C1c2ccccc2CC(NO)c2ccccc21 (stereo unspecified) = 145 to 147 °C

Exercise: Using the record for "COC(=O)c1ccc2[nH]c(=O)oc2c1" , report its melting point.
Solution: 149 to 151 °C

Exercise: Using the record for "CCOCCN(c1cccc2cc(C(N)=S)[nH]c12)S(=O)(=O)c1cccs1" , report its melting point.
Solution: 182 °C

Exercise: Using the record for "CC1(C)c2ccccc2C(C#N)c2ccccc21" , report its melting point.
Solution: 91 to 92 °C

Exercise: Using the record for "CCOCCNC(=O)OCCCc1ccc(OCCOC)cc1Oc1ncc(C(F)(F)F)cc1Cl" , report its melting point.
Solution: 66 to 68 °C

Exercise: Using the record for "Cc1c(-c2ccc(C[C@H](NC(=O)c3c(Cl)cccc3Cl)C(=O)O)cc2)c(=O)n(C)c(=O)n1C" , report its melting point.
Solution: 225 to 227 °C

Exercise: Using the record for CCCCCCCCCCCCCCCC(=O)Nc1nc(=O)n(C2OC(C)C(O)C2O)cc1F (stereo unspecified) , report its melting point.
Solution: 93 to 95 °C

Exercise: Using the record for "CCCCCCCCCCCC(=O)c1ccc(-c2ccc(OC)c(F)c2)cc1" , report its melting point.
Solution: 124 to 125 °C

Exercise: Using the record for Cc1c(C)c2c(c(C)c1OC(=O)c1ccccc1)SC(CCCOC(=O)c1ccccc1)O2 (stereo unspecified) , report its melting point.
Solution: 114 to 116 °C

Exercise: Using the record for "COc1nc2ccccc2nc1NC(=O)N1CCN(c2ccccc2F)CC1" , report its melting point.
Solution: 142 to 144 °C

Exercise: Using the record for "COc1ccc(-c2ccc(C(C)=O)cc2)cc1C=O" , report its melting point.
Solution: 136 to 138 °C

Exercise: Using the record for "CCOC(=O)c1c(C)cc2nc(CSC(C)=O)n(-c3ccccc3Cl)c(=O)c2c1C" , report its melting point.
Solution: 103 to 105 °C
